Listed below: pKi values for each entry.
target entity: DNA nucleotidylexotransferase (Homo sapiens, UniProt P04053)
Sequence (P04053 whole entry): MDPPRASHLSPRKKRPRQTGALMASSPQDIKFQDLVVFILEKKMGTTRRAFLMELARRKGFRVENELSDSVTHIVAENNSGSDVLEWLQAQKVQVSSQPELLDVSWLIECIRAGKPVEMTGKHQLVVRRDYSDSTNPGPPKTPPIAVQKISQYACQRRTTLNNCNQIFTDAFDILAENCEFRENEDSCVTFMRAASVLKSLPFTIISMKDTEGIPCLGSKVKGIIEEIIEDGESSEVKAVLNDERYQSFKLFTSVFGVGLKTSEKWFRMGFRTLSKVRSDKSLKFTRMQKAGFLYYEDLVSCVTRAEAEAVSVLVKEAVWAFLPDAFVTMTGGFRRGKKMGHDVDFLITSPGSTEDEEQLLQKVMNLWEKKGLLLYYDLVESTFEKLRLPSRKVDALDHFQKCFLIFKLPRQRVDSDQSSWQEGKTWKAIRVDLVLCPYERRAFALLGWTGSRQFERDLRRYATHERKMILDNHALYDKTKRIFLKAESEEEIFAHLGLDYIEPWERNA
assay notes: Non-competitive inhibition of human TdT using 3'-OH as substrate
Just the number, please; pKi means minus log10 of the concentration in mol/L.

> print(dat)
                         compound.structure  reported.metric  result.number
1  CCOC(=O)C(=O)CC(=O)/C=C/c1cc(C(=O)c2ccc(C#N)cc2)c[nH]1              pKi           5.77
2  O=C(/C=C/c1cc(C(=O)c2ccccc2F)c[nH]1)CC(=O)C(=O)O              pKi           6.40

// moving on: another record for pKi
### Prompt Given the molecule O=C(/C=C/c1cn(Cc2ccc(O)cc2)c2ccccc12)CC(=O)C(=O)O , what is its reported pKi?
### Response 6.30

Taken from ChEMBL document CHEMBL2440062.
